Items are presented alongside their recorded EC90.
# Test system: HCV replicon cells
# EXPERIMENTAL PROTOCOL: Cell-based HCV replicon assay (replicon RNA level by real time PCR, Taqman)
# CONDITION: Hepatitis C virus, 72 h, HCV replicon cells, replicon RNA level by real time PCR, harvested day 3; read-out: EC90 (μM) range

# COMPOUND, EC90
data = [
    ("Cc1nc(N[C@@H](c2ccsc2)C(F)(F)F)nc(N[C@@H]2C[C@H](CO)[C@@H](O)[C@H]2O)c1-c1nc2c(C)nccc2s1", "< 0.5 µM"),
    ("Cc1nc(NCC2CC2)nc(N[C@@H]2C[C@@H](C(C)O)[C@@H](O)[C@H]2O)c1-c1nc2cnccc2s1 (stereo partly shown)", "< 0.5 µM"),
    ("CCc1ccc([C@@H](C)Nc2nc(C)c(-c3nc4c(C)nccc4s3)c(N[C@@H]3C[C@H](CO)[C@@H](O)[C@H]3O)n2)cc1", "< 0.5 µM"),
    ("Cc1nc(NCC(F)(F)F)nc(NC2CCNCC2)c1-c1nc2ccccc2s1", "0.5 to 5 µM"),
    ("Cc1nc(NC(C)c2cccnc2)nc(N[C@@H]2C[C@H](CO)[C@@H](O)[C@H]2O)c1-c1nc2ccccc2s1 (stereo partly shown)", "0.5 to 5 µM"),
]

The compound listed as Cc1nc(NCc2cc3cn[nH]c3cc2F)nc(N[C@@H]2C[C@H](CO)[C@@H](O)[C@H]2O)c1-c1nc2ccccc2s1 has a reported EC90 of < 0.5 µM

response.value for Cc1nc(NCC2CC2)nc(N[C@@H]2CC[C@@H](O)[C@@]2(C)O)c1-c1nc2c(C)nccc2s1 (field: EC90) = < 0.5 µM

// recorded EC90 for Cc1nc(NCC(F)(F)F)nc(N[C@@H]2C[C@H](CO)[C@@H](O)[C@H]2O)c1-c1cc2ccccc2s1 : > 5 µM

Reported EC90 ( CCOc1ccc(CCNc2nc(C)c(-c3nc4cnccc4s3)c(N[C@@H]3C[C@H](CO)[C@@H](O)[C@H]3O)n2)cc1 ) = < 0.5 µM

Reported EC90 for CCCc1nccc2sc(-c3c(C)nc(N[C@H](C)C4CC4)nc3N[C@@H]3C[C@H](CS(C)(=O)=O)[C@@H](O)[C@H]3O)nc12 was < 0.5 µM

----------
# Tested on: HCV replicon cells
# EXPERIMENTAL PROTOCOL: Cell-based HCV replicon assay (replicon RNA level by real time PCR, Taqman)
# CONDITION: Hepatitis C virus, 72 h, HCV replicon cells, harvested on day 3, replicon RNA by real time PCR; calculated EC90 reported as range class; read-out: EC90 (μM) range
The reader will find reported EC90 values listed item by item below.

# SUBSTANCE SMILES, TGT, EC90
measured = [
    ("Cc1nc(NCCc2ccccc2)nc(N[C@@H]2C[C@H](CO)[C@@H](O)[C@H]2O)c1-c1nc2ccccc2s1", "HCV replicon cells", "< 0.5 µM"),
    ("Cc1nc(NCc2ccccc2F)nc(N[C@@H]2C[C@H](CO)[C@@H](O)[C@H]2O)c1-c1nc2ccccc2s1", "HCV replicon cells", "< 0.5 µM"),
    ("COCCNc1nc(C)c(-c2cc3cc(C(F)(F)F)ncc3o2)c(N[C@@H]2C[C@H](CO)[C@H]3OC(C)(C)O[C@H]32)n1", "HCV replicon cells", "> 5 µM"),
    ("COc1cc(CNc2nc(C)c(-c3cc4cc(OC)nc(C)c4o3)c(N[C@@H]3C[C@H](CO)[C@@H](O)[C@H]3O)n2)cc(OC)c1", "HCV replicon cells", "< 0.5 µM"),
    ("CCc1cc2cc(-c3c(Cl)nc(NCC(F)(F)F)nc3N[C@@H]3C[C@H](CO)[C@@H](O)[C@H]3O)oc2cn1", "HCV replicon cells", "< 0.5 µM"),
]

The recorded EC90 for entry COc1cccc(CNc2nc(C)c(-c3nc4ccccc4s3)c(N[C@@H]3C[C@H](CO)[C@H]4OC(C)(C)O[C@H]43)n2)c1 equals 0.5 to 5 µM
